- ASSAY_EXPLANATION: Biodistribution in HEK293-hsst5+ tumor-bearing mice
- Format: in vivo
- REPORTED_CONDITIONS: mouse, kidneys, iv, 10 pmol, total radioactivity; HEK293-hsst5+ tumor SCID mice, 4 h pi; mean ± SD; read-out: Kidneys uptake
- Method: In the flanks of SCID mice, inocula (150 μL) containing a suspension of 1.8 × 10^7 HEK293-hsst2A^+, -hsst3^+ or -hsst5^+ cells in PBS were subcutaneously injected. Tumors of substantial size were grown within 3 weeks, whereupon biodistribution experiments were performed. The in vivo data presented as mean %ID/g ± SD (n ≥ 4) were statistically analyzed with Student’s t test (Prism^TM 2.01, GraphPad Software, San Diego, CA, USA). […]
MEASURED_QUANTITY: tissue uptake at 4 h (%ID/g)
Number only, in %ID/g; omit the unit.

Lab note: measured tissue uptake at 4 h of C[C@H](NC(=O)CN1CCN(CC(=O)O)CCN(CC(=O)O)CCN(CC(=O)O)CC1)C(=O)NCC(=O)N[C@H]1CSSC[C@@H](C(=O)O)NC(=O)[C@H](CO)NC(=O)[C@H]([C@@H](C)O)NC(=O)[C@H](Cc2ccccc2)NC(=O)[C@H]([C@@H](C)O)NC(=O)[C@H](CCCCN)NC(=O)[C@@H](Cc2c[nH]c3ccccc23)NC(=O)[C@H](Cc2ccccc2)NC(=O)[C@H](Cc2ccccc2)NC(=O)[C@H](CC(N)=O)NC(=O)[C@H](CCCCN)NC1=O [[^111In]AT2S, metal not drawn] was 24.1
